Exercise: for every item that follows, state its recorded Drug degradation.
# STUDY_TARGET: UniProt P49789
# Sequence (P49789 whole entry): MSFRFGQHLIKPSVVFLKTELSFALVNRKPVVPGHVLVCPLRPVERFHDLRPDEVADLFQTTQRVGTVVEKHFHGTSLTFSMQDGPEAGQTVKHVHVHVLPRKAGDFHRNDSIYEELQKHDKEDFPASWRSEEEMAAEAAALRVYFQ
# EXPERIMENT_NOTES: Stability of the compound assessed as human Fhit expressed in Escherichia coli BL21-mediated compound hydrolysis rate per microgram protein at 50 uM after 5 to 120 mins by RP-HPLC analysis
# Format: ADME
The response must be a number in pmol/min with no trailing unit.

Identify measured Drug degradation corresponding to Nc1nc2c(ncn2[C@@H]2O[C@H](COP(=O)(S)OCCSP(=O)(S)OC[C@H]3O[C@@H](n4cnc5c(=O)[nH]c(N)nc54)[C@H](O)[C@@H]3O)[C@@H](O)[C@H]2O)c(=O)[nH]1 (stereo in doubt; 9B)
2

Specify Drug degradation for Nc1ncnc2c1ncn2[C@@H]1O[C@H](CO[P@](=O)(S)OP(=O)(O)O[P@@](=O)(S)OC[C@H]2O[C@@H](n3cnc4c(N)ncnc43)[C@H](O)[C@@H]2O)[C@@H](O)[C@H]1O and stop.
5.7

Input Nc1nc2c(ncn2[C@@H]2O[C@H](COP(=O)(S)OCCSP(=O)(S)OC[C@H]3O[C@@H](n4cnc5c(=O)[nH]c(N)nc54)[C@H](O)[C@@H]3O)[C@@H](O)[C@H]2O)c(=O)[nH]1 (stereo in doubt; 9A) , output reported Drug degradation.
3.9

Identify the reported Drug degradation for the following entry. Nc1nc2c(ncn2[C@@H]2O[C@H](COP(=O)(S)OP(=O)(O)OP(=O)(S)OC[C@H]3O[C@@H](n4cnc5c(=O)[nH]c(N)nc54)[C@H](O)[C@@H]3O)[C@@H](O)[C@H]2O)c(=O)[nH]1 (mixture of isomers)
5.9

Note Drug degradation for the compound shown: Nc1ncnc2c1ncn2[C@@H]1O[C@H](CO[P@](=O)(S)OP(=O)(O)O[P@](=O)(S)OC[C@H]2O[C@@H](n3cnc4c(N)ncnc43)[C@H](O)[C@@H]2O)[C@@H](O)[C@H]1O
27.8

For the compound Nc1ncnc2c1ncn2[C@@H]1O[C@H](CO[P@@](=O)(S)OP(=O)(O)O[P@](=O)(S)OC[C@H]2O[C@@H](n3cnc4c(N)ncnc43)[C@H](O)[C@@H]2O)[C@@H](O)[C@H]1O , give its measured Drug degradation value.
5.8

Return Drug degradation (reported value) for this compound: Nc1nc2c(ncn2[C@@H]2O[C@H](CO[P@@](=O)(S)OP(=O)(O)O[P@](=O)(S)OC[C@H]3O[C@@H](n4cnc5c(=O)[nH]c(N)nc54)[C@H](O)[C@@H]3O)[C@@H](O)[C@H]2O)c(=O)[nH]1
0.7

Supply measured Drug degradation of Nc1ncnc2c1ncn2[C@@H]1O[C@H](COP(=O)(O)OP(=O)(O)OP(=O)(O)OC[C@H]2O[C@@H](n3cnc4c(N)ncnc43)[C@H](O)[C@@H]2O)[C@@H](O)[C@H]1O in your reply.
9810

---

# Tested on: snake venom phosphodiesterase
# EXPERIMENT_NOTES: Stability of the compound assessed as snake venom phosphodiesterase-mediated compound hydrolysis at 50 uM after 1 hr by RP-HPLC analysis
# Format: ADME
# TEST_SETTINGS: serpentes, read-out: Drug degradation
REPORTED_ENDPOINT: metabolised at 1 h, 50 µM (%)
Please give a number only; it is taken to be in %.

Specify metabolised at 1 h, 50 µM for Nc1nc2c(ncn2[C@@H]2O[C@H](COP(=O)(S)OP(=O)(O)OP(=O)(S)OC[C@H]3O[C@@H](n4cnc5c(=O)[nH]c(N)nc54)[C@H](O)[C@@H]3O)[C@@H](O)[C@H]2O)c(=O)[nH]1 (mixture of isomers) , system snake venom phosphodiesterase.
50

Lab note: record metabolised at 1 h, 50 µM of Nc1nc2c(ncn2[C@@H]2O[C@H](CO[P@@](=O)(S)OP(=O)(O)O[P@](=O)(S)OC[C@H]3O[C@@H](n4cnc5c(=O)[nH]c(N)nc54)[C@H](O)[C@@H]3O)[C@@H](O)[C@H]2O)c(=O)[nH]1 tested on snake venom phosphodiesterase.
95

---

# EXPERIMENT_NOTES: Retention time of compound by RP-HPLC analysis
# Type: physicochemical
Would you kindly list Retention_time for each of these compounds?
Please reply with the bare figure in min and do not write the unit itself.

Return Retention_time (reported value) for this compound: Nc1nc2c(ncn2[C@@H]2O[C@H](CO[P@@](=O)(S)OP(=O)(O)O)[C@@H](O)[C@H]2O)c(=O)[nH]1
16.9

Consider the compound NC(=O)c1ncn([C@@H]2O[C@H](CO[P@](=O)(S)OP(=O)(O)O)[C@@H](O)[C@H]2O)n1 . State its measured Retention_time.
10.9

// Input: NC(=O)c1ncn([C@@H]2O[C@H](COP(=O)(O)S)[C@@H](O)[C@H]2O)n1 (stereo not given in full) . Output its Retention_time only.
10.6

Name the recorded Retention_time of the item Nc1ncnc2c1ncn2[C@@H]1O[C@H](CO[P@@](=O)(S)OP(=O)(O)O)[C@@H](O)[C@H]1O in your answer.
18.9

# return recorded Retention_time for input Nc1ncnc2c1ncn2[C@@H]1O[C@H](COP(O)(O)=S)[C@@H](O)[C@H]1O
13.8

---

# Test system: snake venom phosphodiesterase
# EXPERIMENT_NOTES: Stability of the compound assessed as snake venom phosphodiesterase-mediated compound hydrolysis at 50 uM after 2 hrs by RP-HPLC analysis
# Format: ADME
# TEST_SETTINGS: serpentes, read-out: Drug degradation
REPORTED_ENDPOINT: metabolised at 2 h, 50 µM (%)
Provide the reading as a plain figure in %.

# return metabolised at 2 h, 50 µM for Nc1ncnc2c1ncn2[C@@H]1O[C@H](CO[P@](=O)(S)OP(=O)(O)O[P@@](=O)(S)OC[C@H]2O[C@@H](n3cnc4c(N)ncnc43)[C@H](O)[C@@H]2O)[C@@H](O)[C@H]1O , test system: snake venom phosphodiesterase
52

---

# EXPERIMENT_NOTES: Retention time of compound by RP-HPLC analysis
# Format: physicochemical
REPORTED_ENDPOINT: Retention_time (min)
Answer format: numeric, min implied, no suffix.

Using known records, supply Retention_time for Nc1nc2c(ncn2[C@@H]2O[C@H](COP(O)(O)=S)[C@@H](O)[C@H]2O)c(=O)[nH]1
11.1

Provide measured Retention_time value, entry: NC(=O)c1ncn([C@@H]2O[C@H](CO[P@@](=O)(S)OP(=O)(O)O)[C@@H](O)[C@H]2O)n1
11.8

For Nc1nc2c(ncn2[C@@H]2O[C@H](CO[P@](=O)(S)OP(=O)(O)O)[C@@H](O)[C@H]2O)c(=O)[nH]1 , write its Retention_time.
14.9

Fill in Retention_time for record Nc1ncnc2c1ncn2[C@@H]1O[C@H](CO[P@](=O)(S)OP(=O)(O)O)[C@@H](O)[C@H]1O
16.8

---

Record form. Attribute: metabolised at 1 h, 200 µM. Fill in for each entry.
# Tested on: snake venom phosphodiesterase
# EXPERIMENT_NOTES: Stability of the compound assessed as snake venom phosphodiesterase-mediated compound hydrolysis at 200 uM after 1 hr by RP-HPLC analysis
# Assay type: ADME
# TEST_SETTINGS: serpentes, read-out: Drug degradation
Quick reminder: number only, in %, skip the unit.

Let me know recorded metabolised at 1 h, 200 µM for NC(=O)c1ncn([C@@H]2O[C@H](CO[P@@](=O)(S)OP(=O)(O)O[P@](=O)(S)OC[C@H]3O[C@@H](n4cnc(C(N)=O)n4)[C@H](O)[C@@H]3O)[C@@H](O)[C@H]2O)n1 , thanks.
80

Query metabolised at 1 h, 200 µM for NC(=O)c1ncn([C@@H]2O[C@H](CO[P@](=O)(S)OP(=O)(O)O[P@@](=O)(S)OC[C@H]3O[C@@H](n4cnc(C(N)=O)n4)[C@H](O)[C@@H]3O)[C@@H](O)[C@H]2O)n1
10

Answer with the recorded metabolised at 1 h, 200 µM for the compound listed here: NC(=O)c1ncn([C@@H]2O[C@H](CO[P@](=O)(S)OP(=O)(O)O[P@](=O)(S)OC[C@H]3O[C@@H](n4cnc(C(N)=O)n4)[C@H](O)[C@@H]3O)[C@@H](O)[C@H]2O)n1
41

---

# Test system: snake venom phosphodiesterase
# EXPERIMENT_NOTES: Stability of the compound assessed as snake venom phosphodiesterase-mediated compound hydrolysis at 50 uM after 10 mins by RP-HPLC analysis
# Type: ADME
# TEST_SETTINGS: serpentes, read-out: Drug degradation
REPORTED_ENDPOINT: metabolised at 10 min, 50 µM

State its metabolised at 10 min, 50 µM for this molecule: Nc1ncnc2c1ncn2[C@@H]1O[C@H](CO[P@@](=O)(S)OP(=O)(O)O[P@](=O)(S)OC[C@H]2O[C@@H](n3cnc4c(N)ncnc43)[C@H](O)[C@@H]2O)[C@@H](O)[C@H]1O
88%

---

Kindly supply the reported metabolised at 50 µM values for the records listed here.
# Test system: snake venom phosphodiesterase
# EXPERIMENT_NOTES: Stability of compound assessed as snake venom phosphodiesterase-mediated compound hydrolysis at 50 uM by RP-HPLC analysis
# Assay type: ADME
# TEST_SETTINGS: serpentes, read-out: Drug degradation
Kindly write the number and append the unit.

Given the molecule Nc1ncnc2c1ncn2[C@@H]1O[C@H](CO[P@](=O)(S)OP(=O)(O)O)[C@@H](O)[C@H]1O , write its reported metabolised at 50 µM.
10%

Give the reported value of metabolised at 50 µM for this record: Nc1ncnc2c1ncn2[C@@H]1O[C@H](CO[P@@](=O)(S)OP(=O)(O)O)[C@@H](O)[C@H]1O
10%
